- System: COLO 205
- method: NCI tumour cell line growth inhibition, 48 h
Active and inactive are the calls of the source. Cut-off read from the data, not from the text of the source: active = GI50 up to about 1.1 µM and inactive = higher.
Parameter: GI50. Scope: all listed entries.
resultType: GI50

compound	valueMeasured
CCOC(=O)n1ccc2c(C(=O)OC)c(C(=O)OC)cc(/C(=C/C(=O)OC)C(=O)OC)c21	> 100 µM (inactive)
N/C(=N\c1ccc(Cl)cc1)NS(=O)(=O)c1ccc(-c2ccccn2)s1	17.4 µM (inactive)
CC(C)(O)[C@@H]1CC[C@@]2(C)CCC[C@H](O)[C@H]2C1	> 100 µM (inactive)
C=CCN1C(=O)/C(=C/c2ccco2)N=C1SC1OC(COC(C)=O)C(OC(C)=O)C(OC(C)=O)C1OC(C)=O (centres undefined)	> 100 µM (inactive)
O=C(c1ccccc1O)c1cc(-c2ncc3c(=O)c4ccccc4oc3n2)c(-c2ccccc2O)[nH]c1=O	31.9 µM (inactive)
CC1(C)O[C@H]2Cn3c(c(C#N)c4ccccc43)[C@H]2O1	> 100 µM (inactive)
O=C(Cn1c(=O)oc2ccc(C(=O)c3ccc(F)cc3)cc21)c1ccc([N+](=O)[O-])cc1	26.9 µM (inactive)
CCCCCCCCOCC(O)COC(=O)CCCCCCC (centres undefined)	79.3 µM (inactive)
COc1ccc2c(c1)CC[C@@H]1[C@@H]2CC[C@]2(C)C(=O)/C(=C/c3ccc(O)c(OC)c3)C[C@@H]12	> 100 µM (inactive)

* * *

# GI50 per record follows
- System: OVCAR-3
- method: NCI tumour cell line growth inhibition, 48 h
Calls of active or inactive are those of the source. Cut-off read from the data, not from the text of the source: active = GI50 up to about 1.1 µM and inactive = higher.

molecule	GI50
O=C1C[C@@]23CCC4(CC2CCC[C@H]3O1)OCCO4 (stereo not given in full)	> 100 µM (inactive)
CC(=O)c1ccc(OCC(O)CO)cc1 (stereo not given)	> 100 µM (inactive)
O=C(OCCN=C1c2ccccc2CCc2ccccc21)c1ccccc1	> 100 µM (inactive)
Cc1ccc(C2=NN(C)COC2C(F)(F)F)cc1 (stereo not given)	> 100 µM (inactive)
COc1ccc(C2[C@H]3C(=O)N(c4ccc(Cc5ccc(N6C(=O)[C@@H]7ON(c8ccccc8)C(c8ccc(OC)cc8)[C@@H]7C6=O)cc5)cc4)C(=O)[C@H]3ON2c2ccccc2)cc1 (stereo not given in full)	> 100 µM (inactive)
COC(=O)CNCC1OC2OC(C)(C)OC2C1N=[N+]=[N-] (stereo not given)	> 100 µM (inactive)
COC(=O)C(CC(=O)c1cc2c(cc1I)OCO2)Cc1cc(OC)c(OC)c(OC)c1I (stereo not given)	7.21 µM (inactive)
CCOP(=O)(C=C=C(C)C)OCC	> 100 µM (inactive)
COc1ccccc1NC(=O)C1=C(C)NC(C)=C(C(=O)Nc2ccccc2OC)C1c1cccc2ccccc12	64 µM (inactive)
COc1cc(/C=C2\C(=O)N(c3cccc([N+](=O)[O-])c3)C(c3ccccc3)S2(=O)=O)cc(OC)c1OC (stereo not given)	> 100 µM (inactive)

* * *

- System: SR
- method: NCI tumour cell line growth inhibition, 48 h
The source made the active and inactive calls. No stated cut-off is given here; in the data, active = GI50 up to about 1.1 µM and inactive = higher. Square brackets hold non-standard residues; d marks the D form. Peptide text beside a SMILES is read from it. Ac5c = NC1(C(=O)O)CCCC1
Classes used: t for active, f for inactive

compound	label
COc1cc(/C=C2\C(=O)N(c3cccc([N+](=O)[O-])c3)C(c3ccccc3)S2(=O)=O)cc(OC)c1OC (centres undefined)	f
Nc1n[n+]2cc(-c3ccccc3)n(CC(=O)c3ccccc3)c2s1	f
Cc1ccc(/C=N/NS(=O)(=O)c2ccccc2)c(C)c1	f
Oc1nc2nnc(COc3ccc(Cl)cc3Cl)n2nc1Cc1ccccc1	f
Nc1ccc(-c2nc3ccccc3s2)cc1	f
Cc1ccc2nc(-c3ccc(-c4nc5ccc(C)cc5o4)c(O)c3)oc2c1	f
CC12Oc3ccc4ccccc4c3C1c1c(ccc3ccccc13)O2 (centres undefined)	f
O=C(O)CCSC(=O)Nc1cccc(F)c1	f
CCOC(=O)C(Cc1ccc([N+](=O)[O-])cc1)NC(=O)CC1c2ccccc2-c2ccccc21 (centres undefined)	f
CC1(C)OC2OC(C(=O)c3ccccc3)C3OC(C)(C)OC3C2O1 (centres undefined)	f
N=c1nc2n(cc1F)[C@@H]1O[C@H](CO)[C@@H](O)[C@@H]1O2	t
CCOC(=O)c1cc([N+](=O)[O-])c(Sc2ncnc3nc[nH]c23)c([N+](=O)[O-])c1	f
Cc1ccc(Nc2ncnc3sc(SCc4ccccc4)nc23)cc1	f
COc1cc(CC(C)N)ccc1O (centres undefined)	f
CCOC(=O)/C(=C/c1ccc(C(F)(F)F)cc1)N(CC)CC	f
CCCCCCCCCCCCCCCC(=O)OCC1OC(OC)C(NC(=O)N(CCCl)N=O)C(O)C1O (centres undefined)	t
CCOC(=O)N1CCN(C=S)CC1	f
C(=N\c1ccc(-c2nc3ccccc3[nH]2)cc1)/c1cccs1	f
COC(=O)CCCN(C)c1nc(N)n[nH]1	f
CC(C)(C)c1cc(C(OCCl)(C(F)(F)F)C(F)(F)F)c2c(c1)C(C(F)(F)F)(C(F)(F)F)OC21c2ccccc2C(=O)c2ccccc21	f
c1ccc([P+](CCC[P+](c2ccccc2)(c2ccccc2)c2ccccc2)(c2ccccc2)c2ccccc2)cc1	f
Cc1ccc(/C(Cl)=C/C=C(C#N)C#N)cc1	f
C=CCN(C(=O)OC(C)(C)C)[C@H](C)C(=O)N[C@@H](C)C(=O)OC	f
NCC(=O)NC1(C(=O)O)CCCC1 (H-Gly-[Ac5c]-OH)	f
CCCC(C(=O)Nc1cccc2nc[nH]c12)C(=O)OCC (centres undefined)	f
c1ccc2c(c1)Nc1nc3nonc3nc1N2	f
O=C(c1ccco1)c1ccccc1C(=O)c1ccco1	f
O=C1Oc2cc(O)cc(/C=C/c3ccc(O)cc3)c2[C@@]12c1c(O)cc(O)cc1OC2c1cccc(O)c1 (some centres undefined)	f
CCc1nc(N)c2nc(-c3ccc(C#N)cc3)oc2n1	f
CC1(C)C2CC3C4CC5(Nc6ccccc6C5N41)[C@]3(C)CC2=O (some centres undefined)	f
CCOC(=O)Cc1cc(=O)oc2cc(O)ccc12	f
COc1ccc(N2C(=O)c3cc(C)cnc3S2(=O)=O)cc1	f
O=C1NC(Cc2ccc(O)cc2)C(=O)NC1Cc1ccc(O)cc1 (centres undefined)	f
O=C(O)C1Cc2[nH]cnc2CN1 (centres undefined)	f
O=C(OCCN=C1c2ccccc2CCc2ccccc21)c1ccccc1	f
S=c1[nH]nc(Cn2c3ccc(Br)cc3c3nc4ccccc4nc32)n1C1CCCCC1	f
CC1=C(C#N)c2nc3ccccc3n2C(=O)C1(C)CCO (centres undefined)	f
Cc1nc2cc(/N=N/c3c(C)noc3C)ccc2[nH]1	f
CCOP(=O)(C=C=C(C)C)OCC	f
COc1ccc2c(c1)CCc1c-2[nH]c2ccc(OC)cc12	f
CCCCC1=NNC(=O)C1	f
Cc1ccc(NC(=O)CCc2nnc3s/c(=C\C=C\c4ccccc4)c(=O)n23)cc1	f
CCOC(=O)c1nc2ccc(C(F)(F)F)cc2nc1Oc1ccc(C(=O)OC)cc1	f
COc1ccc(C2[C@H]3C(=O)N(c4ccc(Cc5ccc(N6C(=O)[C@@H]7ON(c8ccccc8)C(c8ccc(OC)cc8)[C@@H]7C6=O)cc5)cc4)C(=O)[C@H]3ON2c2ccccc2)cc1 (some centres undefined)	f

* * *

GI50 overview
- Tested on: IGROV-1
- method: NCI tumour cell line growth inhibition, 48 h
The source made the active and inactive calls. Cut-off read from the data, not from the text of the source: active = GI50 up to about 1.1 µM and inactive = higher.
resultType: GI50

compound	systemUnderTest	valueMeasured
NS(=O)(=O)c1ccc(/N=N/c2cc3ccccc3c(C(=O)O)c2O)cc1	IGROV-1	41.6 µM (inactive)
COC(=O)C1=C(C(=O)OC)SC2(S1)C1=C(CCC1)SC(C(=O)OC)=C2C(=O)OC	IGROV-1	12.9 µM (inactive)
Cc1ccc(Nc2ncnc3sc(SCc4ccccc4)nc23)cc1	IGROV-1	> 100 µM (inactive)
CC(C)(C)C(=O)C(C(c1ccccc1)N1CCOCC1)N1CCOCC1 (stereo not given)	IGROV-1	> 100 µM (inactive)
CC1(C)C2CC3C4CC5(Nc6ccccc6C5N41)[C@]3(C)CC2=O (stereo not given in full)	IGROV-1	> 50 µM (inactive)

* * *

- Test system: T47D
- method: NCI tumour cell line growth inhibition, 48 h
Calls of active or inactive are those of the source. Rule as the data show it: active = GI50 up to about 1.1 µM and inactive = higher.

compound	systemUnderTest	GI50
COC(=O)C1=C(C(=O)OC)SC2(S1)C1=C(CCC1)SC(C(=O)OC)=C2C(=O)OC	T47D	9.25 µM (inactive)
C/C(=N\Nc1nc2ccccc2[nH]1)c1ccncn1	T47D	0.103 µM (active)
O=[N+]([O-])C(=C/c1cccc2ccccc12)/C(=C\c1cccc2ccccc12)[N+](=O)[O-]	T47D	3.07 µM (inactive)
Cc1occc(=O)c1O [MALTOL]	T47D	> 100 µM (inactive)
O=C(OCCN=C1c2ccccc2CCc2ccccc21)c1ccccc1	T47D	> 100 µM (inactive)
Cc1ccc(Nc2ncnc3sc(SCc4ccccc4)nc23)cc1	T47D	84.7 µM (inactive)
Cc1ccnc(NC(=S)Nc2ccccc2Cl)c1	T47D	> 100 µM (inactive)
CCOc1cc(C2SCC(=O)N2c2nc3cc4sc(N5C(=O)CSC5c5ccc(O)c(OCC)c5)nc4cc3s2)ccc1O (stereo unspecified)	T47D	40.2 µM (inactive)
N=S(c1ccccc1[N+](=O)[O-])c1ccccc1[N+](=O)[O-]	T47D	0.311 µM (active)
CC1=C(C)CC2(C=C(C(C)(C)C)C(=O)C(C(C)(C)C)=C2)SC1	T47D	27.9 µM (inactive)
COc1cc(CC(C)N)ccc1O (stereo unspecified)	T47D	> 100 µM (inactive)
